experiment notes: chemical genetic growth profiling, strain panel (AID 1159580);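 note: tested at 20 µM; growth read once vehicle control cultures reached saturation at 30 °C; 1 = growth at the plate median or of vehicle wells; lower values mean less growth of the strain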
condition: S. cerevisiae deletion strains, growth OD, locus YOR069W, strain VPS5, active compounds read low
The campaign covered roughly 5,500 compounds. About 2,000 (36%) were called active. Roughly 18% stayed inconclusive and do not appear here. The list shows a part of the results.
Some compounds, each annotated with its measured normalized growth.

Given the entry CC(=O)c1c(O)c(C)c(O)c2c1oc1c(C(C)=O)c(O)c(C)c(O)c12 , report its measured normalized growth.
0.988 (inactive)

# iterate: CC1CC2C3CC(F)C4=CC(=O)C=CC4(C)C3(F)C(O)CC2(C)C1(O)C(=O)CO (stereo not drawn)
1.01 (inactive)

# iterate: CC1(C)OC(=O)NC1=O
0.991 (inactive)
